- assay_details: Displacement of [32P]NAADP from Egg-binding protein in sea urchin egg homogenate at 6 uM after 10 mins
- Format: tissue-based, Lytechinus pictus
measure: pKi
Hey, just a heads up that pKi is the negative log base 10 of the concentration in molar.

State the recorded pKi for this entry: COc1ccc(C2N[C@H](C(=O)O)Cc3c2[nH]c2ccccc32)cc1CN1CCN(c2ccccc2F)CC1 (stereo partly specified)
5.22

====

- assay_details: Antagonistic activity at NAADP receptor in sea urchin egg homogenate assessed as inhibition of NAADP-mediated Ca2+ release using Fluo-3 staining based fluorimetric assay relative to control
- Assay type: functional, tissue-based, Lytechinus pictus
Measured IC50, listed per entry for reference.
Please make sure the unit comes right after the number.

compound	IC50
COc1ccc(C2N[C@H](C(=O)O)Cc3c2[nH]c2ccccc32)cc1CN1CCN(c2ccccc2F)CC1 (stereo partly drawn)	2000 nM

State the recorded IC50 for this entry: `COc1ccc([C@H]2N[C@H](C(=O)O)Cc3c2[nH]c2ccccc32)cc1CN1CCN(c2ccccc2F)CC1`
6 nM

State the recorded IC50 for this entry: `COc1ccc([C@@H]2N[C@H](C(=O)O)Cc3c2[nH]c2ccccc32)cc1CN1CCN(c2ccccc2F)CC1`
800 nM
